# targetOrTestSystem: Potassium voltage-gated channel subfamily KQT member 2 (Homo sapiens, UniProt O43526)
# Sequence (O43526 whole entry): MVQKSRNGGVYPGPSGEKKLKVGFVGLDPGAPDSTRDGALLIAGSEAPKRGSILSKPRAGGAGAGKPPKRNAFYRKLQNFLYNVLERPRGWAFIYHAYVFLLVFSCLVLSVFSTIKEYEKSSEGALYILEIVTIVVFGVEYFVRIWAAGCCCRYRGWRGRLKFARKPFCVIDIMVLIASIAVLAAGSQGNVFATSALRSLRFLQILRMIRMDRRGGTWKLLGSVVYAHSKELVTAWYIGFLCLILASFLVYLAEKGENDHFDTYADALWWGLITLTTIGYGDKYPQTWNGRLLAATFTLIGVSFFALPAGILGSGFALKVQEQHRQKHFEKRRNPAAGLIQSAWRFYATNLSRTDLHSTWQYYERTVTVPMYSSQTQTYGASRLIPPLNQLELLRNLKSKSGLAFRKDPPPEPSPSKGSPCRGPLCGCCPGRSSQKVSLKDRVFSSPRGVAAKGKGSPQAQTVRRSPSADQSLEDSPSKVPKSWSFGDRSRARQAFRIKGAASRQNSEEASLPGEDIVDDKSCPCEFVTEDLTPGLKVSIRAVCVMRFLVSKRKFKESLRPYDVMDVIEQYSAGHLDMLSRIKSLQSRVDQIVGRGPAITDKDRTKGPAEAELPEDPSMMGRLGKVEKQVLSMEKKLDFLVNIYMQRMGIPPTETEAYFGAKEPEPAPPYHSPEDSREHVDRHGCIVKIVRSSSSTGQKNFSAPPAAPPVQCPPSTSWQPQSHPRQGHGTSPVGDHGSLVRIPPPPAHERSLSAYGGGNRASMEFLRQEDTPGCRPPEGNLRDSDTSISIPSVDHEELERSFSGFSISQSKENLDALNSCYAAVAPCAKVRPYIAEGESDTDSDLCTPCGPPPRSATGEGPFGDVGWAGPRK
# conditionSummary: filed as agonist, dose 5.0 µM
# Description: Agonist activity at Kv7.2 (unknown origin) assessed as shifting of voltage dependent activation to more negative potentials at 5 uM by SyncroPatch assay
endpoint: V1/2 (mV)
Give just the number in mV; leave the unit off.

> print(dat)
                            smilesstructure  unitlabel  assayvalue
1  CC(C)(C)CC(=O)Nc1ccc2[nH]c(-c3ccc(C(F)(F)F)cc3)cc2c1         mV        -4.1
2         CCOC(=O)Nc1ccc(NCc2ccc(F)cc2)nc1N         mV       -23.8
3  CC[C@H]1Nc2ccc(OC)cc2[C@@H](NS(C)(=O)=O)[C@@H]1C         mV          -3
4  O=C(Cc1cc(F)cc(F)c1)Nc1ccc2[nH]c(-c3ccc(C(F)(F)F)cc3)cc2c1         mV        -1.1
5  O=C(Cc1ccc(OC(F)(F)F)cc1)Nc1ccc2[nH]c(-c3ccc(C(F)(F)F)cc3)cc2c1         mV        -8.9

Q. API: value(readout= V1/2, system= Potassium voltage-gated channel subfamily KQT member 2 (Homo sapiens, UniProt O43526), query= `COc1ccc(CNc2cc3ccccc3c(=O)[nH]2)cc1` )
A. -3

Q. Can you look up V1/2 on Potassium voltage-gated channel subfamily KQT member 2 (Homo sapiens, UniProt O43526) for `CCOC(=O)Nc1ccc2[nH]c(-c3ccc(F)cc3)cc2c1` ?
A. -0.66

Q. Lookup: V1/2 / Potassium voltage-gated channel subfamily KQT member 2 (Homo sapiens, UniProt O43526) / `CC(C)OC(=O)Nc1ccc2[nH]c(-c3ccc(C(F)(F)F)cc3)cc2c1`
A. -3.2

Q. State its V1/2 on Potassium voltage-gated channel subfamily KQT member 2 (Homo sapiens, UniProt O43526): `COc1ccc2c(c1)[C@@H](NC(C)=O)[C@H](C)[C@@H](c1ccccc1)N2C(C)=O`
A. 2.5
